Measured % inhibition of liver stage parasite viability values are reported for all entries that follow.
tested on: Plasmodium berghei ANKA liver stage in HepG2-A16-CD81; assay: % inhibition of liver stage parasite viability (luciferase); higher = more inhibition; settings: 5 µM; 48 h
readout.kind: % inhibition of liver stage parasite viability (%)

compound	unit.descriptor	measured.value
C[C@@]1(O)[C@H](O)[C@@H](CO)O[C@H]1n1ccc2c(N)ncnc21	%	12.7
CN1C(=O)C(c2ccccc2)C(=O)N(c2ccccc2)c2cc(C(F)(F)F)ccc21 (centres undefined)	%	7.89
COc1cc(C(C)(C)CCCC(C)C)cc(OC)c1OC	%	21
NC1(C(=O)O)CCP(=O)(O)CC1 (centres undefined)	%	19.9

* * *

system: Plasmodium falciparum NF54 stage IV/V gametocytes; test: % inhibition of gametocyte viability (luciferase reporter); higher = more inhibition; details: 1 µM; 48 h

smiles.repr	tested.on	% inhibition of gametocyte viability
COC(=O)Nc1nc2ccccc2[nH]1	Plasmodium falciparum NF54 stage IV/V gametocytes	< 0%
CC(C)Oc1cccc(NC(=O)c2ccccc2C(F)(F)F)c1	Plasmodium falciparum NF54 stage IV/V gametocytes	< 0%
COc1cc(C(C)(C)CCCC(C)C)cc(OC)c1OC	Plasmodium falciparum NF54 stage IV/V gametocytes	8.33%
COc1ccccc1CN[C@H]1C2CCN(CC2)[C@H]1C(c1ccccc1)c1ccccc1	Plasmodium falciparum NF54 stage IV/V gametocytes	15.2%
C[C@@]1(O)[C@H](O)[C@@H](CO)O[C@H]1n1ccc2c(N)ncnc21	Plasmodium falciparum NF54 stage IV/V gametocytes	1.8%
C[C@H]1CC[C@]2(NC1)O[C@H]1C[C@H]3[C@@H]4CC[C@H]5C[C@@H](O)CC[C@]5(C)[C@H]4CC[C@]3(C)[C@H]1[C@@H]2C	Plasmodium falciparum NF54 stage IV/V gametocytes	14.1%
O=C(NC12CC3CC(CC(C3)C1)C2)c1cc2ccccc2[nH]1	Plasmodium falciparum NF54 stage IV/V gametocytes	< 0%

* * *

Measured % inhibition of gametocyte viability values are reported for all entries that follow.
test system: Plasmodium falciparum NF54 stage IV/V gametocytes; assay: % inhibition of gametocyte viability (PrestoBlue); higher = more inhibition; settings: 1 µM; 48 h

smiles.repr	% inhibition of gametocyte viability
CCCCc1ccc(C(=O)O)nc1	< 0%
COC(=O)Nc1nc2ccccc2[nH]1	< 0%
C[C@@]1(O)[C@H](O)[C@@H](CO)O[C@H]1n1ccc2c(N)ncnc21	< 0%
